- subject-of-test: FXR (Rattus norvegicus)
- Sequence (Q62735 whole entry): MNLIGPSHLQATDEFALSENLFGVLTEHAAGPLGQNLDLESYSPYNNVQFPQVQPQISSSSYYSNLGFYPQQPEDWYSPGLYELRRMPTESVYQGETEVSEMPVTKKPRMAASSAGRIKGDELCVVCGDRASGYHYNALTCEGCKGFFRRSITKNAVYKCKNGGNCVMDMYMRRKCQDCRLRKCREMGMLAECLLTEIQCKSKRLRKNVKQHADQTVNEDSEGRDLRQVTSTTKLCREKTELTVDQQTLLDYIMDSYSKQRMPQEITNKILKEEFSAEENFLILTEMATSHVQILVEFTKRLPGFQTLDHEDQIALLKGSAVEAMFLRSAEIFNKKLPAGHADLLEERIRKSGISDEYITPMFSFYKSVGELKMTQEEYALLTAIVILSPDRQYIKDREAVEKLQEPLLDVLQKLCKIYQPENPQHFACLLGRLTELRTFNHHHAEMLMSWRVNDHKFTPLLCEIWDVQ
- Sequence (P28700 whole entry partner): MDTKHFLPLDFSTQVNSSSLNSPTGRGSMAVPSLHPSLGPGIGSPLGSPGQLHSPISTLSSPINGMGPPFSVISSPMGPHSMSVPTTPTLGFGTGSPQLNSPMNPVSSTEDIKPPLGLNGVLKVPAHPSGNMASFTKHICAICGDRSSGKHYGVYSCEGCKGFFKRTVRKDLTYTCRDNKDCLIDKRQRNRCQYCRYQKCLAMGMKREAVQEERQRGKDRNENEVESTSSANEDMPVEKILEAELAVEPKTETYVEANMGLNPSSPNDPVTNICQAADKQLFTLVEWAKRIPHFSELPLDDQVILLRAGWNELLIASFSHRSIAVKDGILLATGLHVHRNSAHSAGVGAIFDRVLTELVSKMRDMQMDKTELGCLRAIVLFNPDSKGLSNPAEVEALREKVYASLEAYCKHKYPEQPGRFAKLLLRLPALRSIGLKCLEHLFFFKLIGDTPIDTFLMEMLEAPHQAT
- protocol-details: cell-based

compound	subject-of-test	EC50
C=CC(C)(O)CCC=C(C)CCC=C(C)C (stereo not shown)	FXR (Rattus norvegicus)	15 µM

====

- subject-of-test: FXR (Rattus norvegicus)
- protocol-details: cell-based
- experimental-conditions: 25 μM

compound	subject-of-test	output-unit	FXR-dependent activity, induction
N#Cc1nn(-c2c(Cl)cc(C(F)(F)F)cc2Cl)c(N)c1[S+]([O-])C(F)(F)F (stereo not shown)	FXR (Rattus norvegicus)	fold	20
CC(C)=CC1C(C(=O)OCc2cccc(Oc3ccccc3)c2)C1(C)C (stereo not shown)	FXR (Rattus norvegicus)	fold	8
C=CCC1=C(C)C(OC(=O)[C@@H]2[C@@H](C=C(C)C)C2(C)C)CC1=O (stereo partly shown)	FXR (Rattus norvegicus)	fold	14
C[C@H]1[C@H](C)CC[C@]2(C)CC[C@]3(C)C(=CC[C@@H]4[C@@]5(C)CC[C@@H](O)[C@](C)(C(=O)O)[C@@H]5CC[C@]43C)[C@H]12	FXR (Rattus norvegicus)	fold	11
CC(C)=CCC/C(C)=C/COc1c2ccoc2cc2oc(=O)ccc12	FXR (Rattus norvegicus)	fold	8
CCOCn1c(-c2ccc(Cl)cc2)c(C#N)c(Br)c1C(F)(F)F	FXR (Rattus norvegicus)	fold	10
